Source of measurements: patent US9205086B2

protocol notes: In vivo pharmacokinetic (drug-drug interaction) study in SCID mice, plasma by HPLC
Parameters: species or system mouse
condition details: female, CB17/Icr-Prkdc^scid/Crl (SCID), mouse, plasma, iv, 50 mg/kg, analyte Compound 1; Compound 1 50 mg/kg + erlotinib HCl 25 mg/kg, single dose, plasma
attribute measured: Cmax
The answer should read as a number with its unit following.

Entry CC(C)c1cc(-c2nnc(O)n2-c2ccc3c(ccn3C)c2)c(O)cc1O , Cmax reported as 93.4 µM

----------
protocol notes: In vivo pharmacokinetic (drug-drug interaction) study in SCID mice, plasma by HPLC
Parameters: species or system mouse
condition details: female, CB17/Icr-Prkdc^scid/Crl (SCID), mouse, plasma, intravenous, 25 mg/kg, analyte erlotinib HCl; erlotinib HCl 25 mg/kg alone, single dose
Where a name gives a salt, the structure may show the parent alone.
attribute measured: Cmax (µM)
The reply should be a number in µM, with the unit left off.

Entry C#Cc1cccc(Nc2ncnc3cc(OCCOC)c(OCCOC)cc23)c1 [erlotinib HCl] , Cmax reported as 4.11

----------
protocol notes: In vivo pharmacokinetic (drug-drug interaction) study in SCID mice, plasma by HPLC
Parameters: species or system mouse
condition details: female, CB17/Icr-Prkdc^scid/Crl (SCID), mouse, plasma, intravenous, 25 mg/kg, analyte erlotinib HCl; erlotinib HCl 25 mg/kg + Compound 1 50 mg/kg, single dose, plasma
Where a name gives a salt, the structure may show the parent alone.
attribute measured: Cmax (µM)
The reply should be a number in µM, with the unit left off.

Entry C#Cc1cccc(Nc2ncnc3cc(OCCOC)c(OCCOC)cc23)c1 [erlotinib HCl] , Cmax reported as 4.94

----------
protocol notes: In vivo pharmacokinetic (drug-drug interaction) study in SCID mice, plasma by HPLC
Parameters: species or system mouse
condition details: female, CB17/Icr-Prkdc^scid/Crl (SCID), mouse, plasma, iv, 50 mg/kg, analyte Compound 1; Compound 1 50 mg/kg alone, single i.v. dose
attribute measured: Cmax (µM)
The reply should be a number in µM, with the unit left off.

Entry CC(C)c1cc(-c2nnc(O)n2-c2ccc3c(ccn3C)c2)c(O)cc1O [Compound 1] , Cmax reported as 118
